Listed here are sequences together with their documented apparent KD of MS2 coat protein.
Test system: MS2 coat protein
Experiment: apparent KD of MS2 coat protein; higher = weaker reporter binding
Conditions: Eterna round: R107; input ligand: theophylline 20 uM
Answers without a unit are incomplete; give the number and then its unit.

The following sequences have reported results that may help.
UCAUACAUGAGGAUCACCCAUGUUCGUGGGCGAGGACCGGUACGGCCGCCACUCGUACUAACGGUUUCUUAAACUUCCUUUCGAG [theeternabot_sameState_MS2_Trp_A_49] ... 41.2 nM
GAUACUAUGAAAGUAGUAUCUACGUGUUGACGAGGACCGGUACGGCCGCCACUCGACAUGAGGAUCACCCAUGUAUAGAAUAUGU [TrypA_2] ... 39.2 nM

Turning now to a further record.
Q: Quick check: apparent KD of MS2 coat protein on MS2 coat protein, item CGGCCCUCAGAUGAGGAUCACCCAUCUGAUACCAGCCUGGAAACAGGCCCUUGGCAGCAGAAGGUCAUCAAAGAUGACCAAGCCG [TheoAX 30 #OpenEnded #AlternativeMS2] ?
Result: 19.4 nM

====

System: K4 kissing-loop RNA reporter
Test: apparent KD of K4 kissing-loop reporter; higher = weaker reporter binding
Details: Eterna round: R107; input ligand: theophylline 20 uM
EXPERIMENTAL_ENDPOINT: apparent KD of K4 kissing-loop reporter (nM)
The answer is to be given in nM; state only the numeric part.

The following sequences have reported results that may help.
GCAACAUUGGCAGGAUAUCCUUCUCAGUGAUGUUGAGGGUUCAGCUAACGAAAGUUAGUUGUACCGGGAGAAGGGCUAAUGUUGC [Omei KL FMN B SS A v8] ... 913
CCAUUCAUUUACGAUACCAGUCUAAUAUAUUUAAUCAAAACCCUCGCCGAGUGAUGUUCGGACCCUUGGCAGCGUCUGCGACAGG [cyycmullin] ... 399
AAAUAUAGUGAUGUUAUAUAUAUAUGUGAUACCAGAGAAAGAAAACUCCCUUGGCAGCACGAGAGAGAAUUUUUUUUUUAUAUAU [AstrosSSTheA#1] ... 414

Turning now to a further record.
Q: Please give the measured apparent KD of K4 kissing-loop reporter for this sequence: AAAAUAAACCAGUGAUGUUGGUGUCCGGAUACCAGCGAUAAUCAUCGCCCUUGGCAGCCGCGGACGUACAAAAUAAGUACGUCCU [MatMod 13 - Jieux - Same State - Theophylline A]
Result: 310

====

Tested on: K4 kissing-loop RNA reporter
Assay: apparent KD of K4 kissing-loop reporter; higher = weaker reporter binding
Conditions: Eterna round: R107; input ligand: FMN 200 uM
EXPERIMENTAL_ENDPOINT: apparent KD of K4 kissing-loop reporter
Answers without a unit are incomplete; give the number and then its unit.

The following sequences have reported results that may help.
UCCUAGGCUCGAAAGAGCCUAGGAUGGACUCAGGAUAUCCGGAAACGGAGAAGGGAGUCACUAGUGAUGUUAGGGACUCCCUAAC ... 302 nM
AAGCAGUCACUCGAAACCAUCGAAGAUGGGCGAGGACCGGUACGGCCGCCACUCGGAGUGAUGUUCCGAAGACUGCAAAAUAAAA ... 377 nM
GUGCAGUGAUGUUGCACGAGGAAAGACGAUACCAGCCGUAAAUAUGGCCCUUGGCAGCGUGGGCUAGCACAAAAUGUGCUAGUCU [Zareatza] ... 127 nM
AAGCAGUCUCUCGAAGCCAUCGAAGAUGGGCGAGGACCGGUACGGCCGCCACUCGGAGUGAUGUUCCGAAGACUGCAAAAUAAAA [MatMod 10 - Jieux - Exclusion - Tryptophan A] ... 281 nM
UACAUUUUAUUAACACUAAAUACAACUGAAGGAGCGACAAUAAAGUCAGGUAGGUCGCAGAAUAAAUGAGUGAUGUUCAUUAUUG [JR_ExcArginiA_Sub016] ... 60.2 nM
UGGAGUUGACGAAAAGUCAACUCCUGAGAUACCAGUGACGAAAGUCACCCUUGGCAGCUCACUGGCAGUGAUGUUGCUAAAUAAA [KL-SSTheo-A2] ... 57.3 nM
CGAAUGGAACUAUUGAACAUUUGUAUUGGCAAGGAUAUCGGGCUAUCGAGAAGGUGCUAUUUGGGCAGUGAUGUUGCCGAUUUAA [theeternabot_sameState_KL_FMN_A_10] ... 43.3 nM
ACCACCAGCCGCACGAUACACGGGCAUUACCGAGGACCGGUACGGCCGCCACUCGCCCGCACGCUGGAUCGAGUGAUGUUCGAUC [theeternabot_sameState_KL_Trp_A_15] ... 358 nM
UGUCAUUGGUCUGAUACCAGUACCCUUGGCAGCCAAGGAGUGAUGUUCCGAGGAUACCAGUGCCCUUGGCAGCAGACCGAUGACU [TheoBS 27 #DoubleAptamer #SwitchBubble] ... 375 nM
GCGCGUCAUGUCAGCGGUGACACUGUCGAUACCAGUGCCGUAAGGCGCCCUUGGCAGCGACGUGCUGGAGUGAUGUUCCAGCGUU [#2 Exclusion - Theophylline A Attempt #31 (HarryS)] ... 143 nM

Turning now to a further record.
Q: Please give the measured apparent KD of K4 kissing-loop reporter for this sequence: AAAAUUAACAAGAGUGAUGUUCUUGUUAGACAGGAUAUCGGUUUAACGAGAAGGGUCGUGGCUCCAUUGGGCCCAGUGGUUCACC [Mazareri]
Result: 309 nM

====

Tested on: MS2 coat protein
Experiment: apparent KD of MS2 coat protein; designed switch direction (-1 OFF switch, 1 ON switch): -1; higher = weaker reporter binding
Conditions: Eterna round: R95; input ligand: FMN 200 uM
The label depends only on apparent KD of MS2 coat protein: 1.0 if it is at least 0.04 µM, 0.0 if it is smaller.

GAGAAACAUGAGGAUCACCCAUGUGAGGAUAUGUGAGACUAAAGCGCGCAGGCUAAGGACAGAAGGCACAAGGA [Excls1-Ia] (puzzle: Exclusion 1) ... 1.0
CCGAAUAAGCAGGAUAUCGUUUCGGAAACGAAACGAGAAGGGCUAACAUGAGGAUCACCCAUGUUCCUUAACGG [Mat - Exclusion 6 - Eli Mod - D77] (puzzle: Exclusion 6) ... 0.0
GAUUAUGCGAGCUUUAGGGACAUGAGGAUCACCCAUGUUCGUCUUAUUGAUCUAGGUGCACUAACAUACCUAAAUCU [JMF 34] (puzzle: Sensor v3, turn-off variant 1) ... 0.0
CUGGUCCGAGGAUAUAUUAUGUGAAACAUGAGGAUCACCCAUGUAAUAUGAUGGAUGAAAAUAGAAGGCGGACUAG [Mat - Exclusion 5 - JL mod - D30] (puzzle: Exclusion 5) ... 0.0
AUGGUACAUGAGGAUCACCCAUGUUAGGAUAUCGCGUGUUCUAAAACUAAGAGACACACGAGAAGGGACGACAU (puzzle: Exclusion 1) ... 1.0

Q: Determine whether this sequence has apparent KD of MS2 coat protein no lower than 0.04 µM: CAGUACUGAGGAUAUACAUGAGGAUCACCCAUGUGUUCCAGCGAGGAAACUAGCAAAAGUAGAAGGCAGUACUG [salish99_ex3_r3_077] (puzzle: Exclusion 3)
Result: 1.0

Q: Determine whether this sequence has apparent KD of MS2 coat protein no lower than 0.04 µM: UAGGUGCAAGGAUAUCGCCCGGAAGACAUGAGGAUCACCCAUGUACCGGGUGAGUAUGGGCGAGAAGGUGCAUAUU [Usergete] (puzzle: Exclusion 5)
Result: 1.0

Q: Determine whether this sequence has apparent KD of MS2 coat protein no lower than 0.04 µM: CGAGAGCGAGGAUAUACACAACUCCUCACUGUCAAGAAAGGACAUGAGGAUCACCCAUGUAGAAGGUGCAAAAC [Quries] (puzzle: Exclusion 2)
Result: 1.0

Q: Determine whether this sequence has apparent KD of MS2 coat protein no lower than 0.04 µM: GGGAUGUCAGGAUAUCCGAAAGUCUACCAAUACGGCAGACAGGAGAAGGGACAUGAGGAUCACCCAUGUAAAGA [Quatma] (puzzle: Exclusion 4)
Result: 1.0

====

Test system: K4 kissing-loop RNA reporter;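 note: bound reporter read as fluorescence of individual clusters on recovered sequencing chips by microscopy, with normalized cluster intensities fitted with a binding model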
Experiment: apparent KD of K4 kissing-loop reporter; higher = weaker reporter binding
Details: Eterna round: R107; input ligand: FMN 200 uM
The label depends only on apparent KD of K4 kissing-loop reporter: true (1) if it is at least 200 nM, false (0) if it is smaller.

UGAUAGGACAGAAGGAGCGGGAGUGAUGUUCCCAAUAGGAGGUCUAGCAAAGCUGGACCCUCCCAGGUAGGUCGCUGUCCUAUCU [ArgBX 3 #SwitchBubble #StaticStem] ... false (0)

Q: Determine whether this sequence has apparent KD of K4 kissing-loop reporter no lower than 200 nM: GAAGGUCAAAGACCUUCGUGCACAUCUGAUACCAGUCGCGAAAGCGACCCUUGGCAGCAGGGCAGUGAUGUUGCCAGUGCACAAA [Omei KL Theo A SS A v4]
Result: true (1)

Q: Determine whether this sequence has apparent KD of K4 kissing-loop reporter no lower than 200 nM: AGACUACCACACUGUCAAUAGACAGUGAACUAGGAUAUGCUGAUAAGCAGAAGGAGUGAUGUUCCUAAUAAGGUAGUCAUAUAAU [FmnAX 15 #SwitchBubble #StaticStem #K4Early]
Result: true (1)

Q: Determine whether this sequence has apparent KD of K4 kissing-loop reporter no lower than 200 nM: CGCGGCCCGCCGGAUACCAGUGACCCGCGGGAAACCGCGGGCCCAGAGUGAUGUUCGGGACACCCUUGGCAGCCGCCUGGGCGUG [#2 Same State - Theophylline B Attempt #1 (HarryS)]
Result: true (1)

Q: Determine whether this sequence has apparent KD of K4 kissing-loop reporter no lower than 200 nM: UAUUGAUUGUCAGGAUAUCGUAAACGAGUGAUGUUCGUAAAUCGACGAUAGUCGAUAUGAUCUGAACGAGAAGGGACAUUAUUUA [JR_SSFMNB_Sub010]
Result: true (1)

Q: Determine whether this sequence has apparent KD of K4 kissing-loop reporter no lower than 200 nM: "ACGUGCACCAGUGAUGUUGGAAAAUAUGAAGGAGCGGGAGAAAGCCCAGGUAGGUCGCAUAAUAGCACGAGCCACGAAAGUGGCA"
Result: true (1)

Q: Determine whether this sequence has apparent KD of K4 kissing-loop reporter no lower than 200 nM: "AGGUCUGCACGAAGGAGCGCCCUGACAGGUUGCUGCCGUGGGCAGUGAUGUUGCUCAGUCCGGCAGGUAGGUCGCGUGCAGACCU"
Result: false (0)

Q: Determine whether this sequence has apparent KD of K4 kissing-loop reporter no lower than 200 nM: AUCGUUGUCUGAGGAUAUCGGUUAUCUGUAGUGAUGUUACAGUAUAUUGAUAUUAUAGUUUCUUUUCGAGAAGGCAGACUACGUA [JR_Nu_ExcFMNB_Sub021]
Result: false (0)

Q: Determine whether this sequence has apparent KD of K4 kissing-loop reporter no lower than 200 nM: UAGGAGUGAUGUUCCAUAUCUUGAGCCGAAGGAGCGCCUUUCUAGGCAGGUAGGUCGCGGCAGAAGGUACCAGUGAUGUUGGAAA [Same State Arginine A GF7]
Result: false (0)

Q: Determine whether this sequence has apparent KD of K4 kissing-loop reporter no lower than 200 nM: ACGUCCGGGUUAAUCGUGGGCGUGGUGGAUACCAGUUCUUUAAUGAACCCUUGGCAGCCACAUGAGUGAUGUUCAUGUGCGAUGA [KL-XTheo-A10 #analogue]
Result: false (0)

Q: Determine whether this sequence has apparent KD of K4 kissing-loop reporter no lower than 200 nM: AAAUAAAUCACGGCCGCCACUGUAAGUUGAAGUGAUGUUUCAAGAUAUAGUAUGUUUUAUAAUAUCAGGACCGGGUGAUUUUUAA [JR_SSTryptoB_Sub021]
Result: false (0)

Q: Determine whether this sequence has apparent KD of K4 kissing-loop reporter no lower than 200 nM: AGACUACCACACUGUCAAUAGACAGUGAGCUAGGAUAUGCUGAUAAGCAGAAGGAGUGAUGUUCCUAGGUAGUCAAUAAAAUAAU [FmnAX 13 G29]
Result: true (1)

Q: Determine whether this sequence has apparent KD of K4 kissing-loop reporter no lower than 200 nM: AGGAUCCGUCGACAAAAGUCGACAUAAUCCAAGGAUAUGACGAAAGUCAGAAGGUGGACAUAAGUCCAGUGAUGUUGGAGGAUCC [FmnA 16 #SwitchBubble #K4Late]
Result: true (1)

Q: Determine whether this sequence has apparent KD of K4 kissing-loop reporter no lower than 200 nM: UGGGAUGUUAAAGGAUAUAGCAGAUGAUACAAGAAAGUGAGUGAUGUUUAUGUAGAUGAUGAUAUGUUAGAAGGUUAACAAAACG [abcdefghijk]
Result: true (1)

Reference for the values: the supplement of paper PMC9170038
